TEST_DETAILS: chemical genetic growth profiling, strain panel (AID 1159580);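 also: tested at 20 µM; growth read once vehicle control cultures reached saturation at 30 °C; 1 = growth at the plate median or of vehicle wells; lower values mean less growth of the strain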
DETAILS: S. cerevisiae deletion strains, growth OD, locus YGL078C, strain dbp3, active compounds read low
Hit rate of the full screen: of about 5,500 compounds, about 2,000 (36%) were called active. Not shown: some 18% with an inconclusive outcome. The list shows a part of the results.
# normalized growth annotations
Please state the value as a number alone, without comment.

Solved entries (count: 3):
{"SMILES": "O=C(O)CF", "normalized growth": 0.99}
{"SMILES": "Nc1ncnc2c1ncn2[C@@H]1O[C@H](CO)[C@@H](O)[C@H]1O", "normalized growth": 0.986}
{"SMILES": "c1ccc2c3c([nH]c2c1)CNCC3", "normalized growth": 0.997}

What does the record list as normalized growth for "O=C(O)CCC(=O)C(=O)O" ? 1.02

###

Quick reference: normalized growth of the listed items.
TEST_DETAILS: chemical genetic growth profiling, strain panel (AID 1159580)
DETAILS: S. cerevisiae deletion strains, growth OD, locus YLR357W, strain rsc2, active compounds read low
Screen size: about 5,500 compounds; about 2,000 (36%) were called active. Another 18% or so got no clear call; they are omitted. The list shows a part of the results.
In your answer, state the number alone without any accompanying words.

{"MOLECULE": "COC(C)(C)CCC[C@H](C)C/C=C/C(C)=C/C(=O)OC(C)C", "TEST_VALUE": 1.01}
{"MOLECULE": "CC1(C)C(C(Cl)Cl)C2(Cl)C(Cl)C(Cl)C1(Cl)C2(Cl)Cl (centres undefined)", "TEST_VALUE": 0.993}
{"MOLECULE": "CC(C)(C)NC[C@@H](O)COc1nsnc1N1CCOCC1", "TEST_VALUE": 0.998}

Note: attention shifts to another entry.
Need normalized growth of "Nc1ccc(S(=O)(=O)Nc2ccc(Cl)nn2)cc1" , thanks. 0.978

###

TEST_DETAILS: chemical genetic growth profiling, strain panel (AID 1159580)
DETAILS: S. cerevisiae deletion strains, growth OD, locus YHR129C, strain ARP1, active compounds read low
Among all 5,500 compounds or so, about 2,000 (36%) were called active. Roughly 18% stayed inconclusive and do not appear here. Some of the results follow.
// normalized growth lookup, one value per entry

Examples from the recorded data:
{"COMPOUND": "C=C(CC)C(=O)c1ccc(OCC(=O)O)c(Cl)c1Cl", "MEASURED_METRIC": "normalized growth", "TEST_VALUE": "0.977 (inactive)"}
{"COMPOUND": "Oc1c(Cl)cc(Cl)c2cccnc12", "MEASURED_METRIC": "normalized growth", "TEST_VALUE": "0.0524 (active)"}
{"COMPOUND": "Nc1ncnc2c1ncn2C1O[C@H](COP(=O)(O)O)[C@@H](O)[C@H]1O (stereo not given in full)", "MEASURED_METRIC": "normalized growth", "TEST_VALUE": "1.01 (inactive)"}

Item "Cc1ccc(/C(=C\CN2CCCC2)c2ccccn2)cc1" has what recorded normalized growth? 1.01 (inactive)

Entry "c1ccc2c3c([nH]c2c1)CNCC3" : reported normalized growth = ? 1.01 (inactive)

Fill in: normalized growth of "CCCCC1(COC(=O)CCC(=O)O)C(=O)N(c2ccccc2)N(c2ccccc2)C1=O" is ___ 1 (inactive)

Data request, read-out normalized growth, for CC(C)NCC(O)c1ccc(O)c(O)c1 (stereo not given) 1.01 (inactive)

###

TEST_DETAILS: chemical genetic growth profiling, strain panel (AID 1159580);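 also: tested at 20 µM; growth read once vehicle control cultures reached saturation at 30 °C; 1 = growth at the plate median or of vehicle wells; lower values mean less growth of the strain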
DETAILS: S. cerevisiae deletion strains, growth OD, locus YDR334W, strain swr1, active compounds read low
In all, about 5,500 compounds went through this assay and about 2,000 (36%) were called active. Another 18% or so got no clear call; they are omitted. This is one part of the list.
# reported normalized growth; entries follow
Give your answer as a number; write no unit.

{"SMILES": "OC[C@@H]1CCCN2CCCC[C@H]12", "MEASURED_METRIC": "normalized growth", "TEST_VALUE": 1.02}
{"SMILES": "CN/C(=C\\[N+](=O)[O-])NCCSCc1ccc(CN(C)C)o1", "MEASURED_METRIC": "normalized growth", "TEST_VALUE": 0.977}

Query: normalized growth; subject: "COc1cccc(/C=C/C(=O)O)c1C(C)C" 0.983

Which normalized growth reading was recorded for the compound "Nc1ncn([C@@H]2O[C@H](CO)[C@@H](O)[C@H]2O)c(=O)n1" ? 0.989

# lookup: normalized growth of "CC(=O)Nc1ccc(S(=O)(=O)c2ccc(NC(C)=O)cc2)cc1" 1.02

Item "CC(=O)/C(=C\c1ccccc1)CC(=O)O" has what recorded normalized growth? 0.996

Fill in: normalized growth of "Nc1ccc(S(=O)(=O)Nc2ccccn2)cc1" is ___ 1.01

###

Quick reference: normalized growth of the listed items.
TEST_DETAILS: chemical genetic growth profiling, strain panel (AID 1159580);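 also: tested at 20 µM; growth read once vehicle control cultures reached saturation at 30 °C; 1 = growth at the plate median or of vehicle wells; lower values mean less growth of the strain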
DETAILS: S. cerevisiae deletion strains, growth OD, locus YAL013W, strain DEP1, active compounds read low
Out of some 5,500 compounds screened, about 2,000 (36%) were called active. Not shown: some 18% with an inconclusive outcome. The list shows a part of the results.
Answer using only a numeral; do not append any unit.

{"COMPOUND": "CC(C)N(C(=O)SCC(Cl)=C(Cl)Cl)C(C)C", "normalized growth": 1.01}
{"COMPOUND": "O=C(O)CF", "normalized growth": 0.998}
{"COMPOUND": "CN(C(=O)CCCOc1ccc2[nH]c(=O)ccc2c1)C1CCCCC1", "normalized growth": 1.01}

Fill blank: measured normalized growth of the compound COC(=O)[C@]1(C)CC[C@]2(C)CC[C@]3(C)C4=CCc5c(cc(O)c(O)c5C)[C@]4(C)CC[C@@]3(C)C2C1 (some centres not stated) is ____. 0.992

What does the record list as normalized growth for CC(N)[C@H](O)c1ccc(O)c(O)c1 (some centres not stated) ? 0.998

Recorded normalized growth for "COc1cccc(C2C3=C(CC(C)(C)CC3=O)OC3=C2C(=O)CC(C)(C)C3)c1O" , please? 1

Fill in: normalized growth of CCCC(C)C1(CC)C(=O)N=C(S)NC1=O (configuration not stated) is ___ 1.01

Consider the compound CC(C)NCC(O)c1ccc2ccccc2c1 (configuration not stated) and give its measured normalized growth. 1.02

# query: normalized growth of entry "CN[C@H](CC(=O)O)C(=O)O" 0.983

Query (compound): C[C@H]1[C@H]2CCC3C4CC=C5C[C@@H](N(C)C)CC[C@]5(C)C4CC[C@@]32CN1C (some centres not stated) ; field requested: normalized growth 0.994

Query: normalized growth; subject: CC1(C)CC2C1(O)CCC1(C)C=CC(O)C21CO (configuration not stated) 0.99

Entry under review: "C[C@H](N)[C@H](O)c1ccc(O)c(O)c1" . Reported normalized growth? 1

For the compound shown here, "O=C(O)c1ccccc1Nc1cccc(OCc2ccc3ccccc3n2)c1" , give the reported normalized growth. 0.996

Please report the recorded normalized growth for "O=S(=O)(N/N=C\c1ccc(Cl)cc1)c1ccc(-c2ccccn2)s1" . 0.973

Give the measured normalized growth of "CCSc1nnc(N)s1" . 1.02

GET /values?readout=normalized growth&item= "CC(C)N(Cc1ccc(N(C)C)cc1)S(=O)(=O)c1cc(Cl)c(Cl)cc1Cl" 1

Look up normalized growth for this compound: "Fc1cccc(Cl)c1CSc1nncn1-c1ccc(OCc2ccccc2)cc1" 0.976

Need normalized growth of "O=C(Nc1ccc(C(F)(F)F)cc1)Nc1ccccc1C(=O)O" , thanks. 0.975

So what's the measured normalized growth for this one? "COc1cc(C(=O)NCc2ccc(OCCN(C)C)cc2)cc(OC)c1OC" 1

If you can, please state the reported normalized growth value of "O=C(COC(=O)c1ccccc1Nc1ccccc1)c1ccc(Cl)cc1" . 0.978

Consider the compound shown here: NCC(CC(=O)O)c1ccc(Cl)s1 (configuration not stated) What is its recorded normalized growth? 0.991

Requested read-out: normalized growth. Entry: "O=C(COC(=O)c1ccccc1Nc1cccc(F)c1)c1ccccc1" 0.98

I have this compound here, "O=C(/C=N\Nc1ccccc1)Nc1ccccc1C(=O)O" , and I need its recorded normalized growth. 0.975

What normalized growth value was documented for this compound, "Clc1cc(Cl)cc(-n2cccc2)c1" ? 1.02

###

TEST_DETAILS: chemical genetic growth profiling, strain panel (AID 1159580);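 also: tested at 20 µM; growth read once vehicle control cultures reached saturation at 30 °C; 1 = growth at the plate median or of vehicle wells; lower values mean less growth of the strain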
DETAILS: S. cerevisiae deletion strains, growth OD, locus YLR262C, strain YPT6 (second series), active compounds read low
Out of some 5,500 compounds screened, about 2,000 (36%) were called active. About 18% were inconclusive and are not listed. This is one part of the list.
Listed next: entries and their corresponding normalized growth.
Reply with just the number.

# annotated cases, reported normalized growth shown
{"COMPOUND": "N[C@@H](Cc1ccc(O)c(O)c1)C(=O)O", "normalized growth": 1.01}
{"COMPOUND": "C=C[C@@H](C1=CC(=O)C(OC)=C(OC)C1=O)c1ccccc1", "normalized growth": 0.17}
{"COMPOUND": "CC(=O)NCCCCCC(=O)O", "normalized growth": 1.02}
{"COMPOUND": "O=C1C=CC2=C3c4cc(O)c(O)cc4C[C@@]3(O)COC2=C1", "normalized growth": 0.976}

Let us move to another entry and its normalized growth.
Endpoint output: normalized growth of C=CC(C1=CC(=O)C(OC)=CC1=O)c1ccc(O)cc1 (stereo not given) . Value? 0.996
